- target-under-test: Hmlalpha2 (UniProt P0CY09)
- Sequence: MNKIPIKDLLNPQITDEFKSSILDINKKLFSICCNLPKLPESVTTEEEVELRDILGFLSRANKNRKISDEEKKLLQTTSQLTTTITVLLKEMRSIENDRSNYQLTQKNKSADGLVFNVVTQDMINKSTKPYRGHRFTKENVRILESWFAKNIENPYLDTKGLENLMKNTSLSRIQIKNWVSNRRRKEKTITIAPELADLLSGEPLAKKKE
- assay: PBM E-score (8-mer binding enrichment) (E-score (-0.5 to 0.5)); higher = stronger / more preferred TF binding
- experimental-context: protein concentration: 200 nM; construct: GST-full length
Whole data set: some 33,000 sequences, median “E-score (-0.5 to 0.5)” near -0.04, cut for the highest 2% near 0.36. This excerpt belongs to a sample that is enriched for the highest values.
PBM E-score vs 0.4: at or above is condition met, below is condition not met.

Could you verify whether the entry CTACAACA shows PBM E-score of no less than 0.4?
condition not met

Could you verify whether the entry ATCACGCG shows PBM E-score of no less than 0.4?
condition not met

Could you verify whether the entry GGTACAAA shows PBM E-score of no less than 0.4?
condition not met

Could you verify whether the entry TATTTAAA shows PBM E-score of no less than 0.4?
condition not met

Could you verify whether the entry AGTATGTG shows PBM E-score of no less than 0.4?
condition not met

Could you verify whether the entry AGTACAAA shows PBM E-score of no less than 0.4?
condition not met

Could you verify whether the entry GGCGTGAA shows PBM E-score of no less than 0.4?
condition not met

Could you verify whether the entry TCACACCA shows PBM E-score of no less than 0.4?
condition not met

Could you verify whether the entry TGTACAAA shows PBM E-score of no less than 0.4?
condition met

Could you verify whether the entry AGTATGTC shows PBM E-score of no less than 0.4?
condition not met

Could you verify whether the entry ATAACATA shows PBM E-score of no less than 0.4?
condition met

Could you verify whether the entry AAACAACC shows PBM E-score of no less than 0.4?
condition not met

Could you verify whether the entry GCACAACA shows PBM E-score of no less than 0.4?
condition not met

Could you verify whether the entry TATTTACA shows PBM E-score of no less than 0.4?
condition met

Could you verify whether the entry AATTTACC shows PBM E-score of no less than 0.4?
condition not met

Could you verify whether the entry CGCGTGTA shows PBM E-score of no less than 0.4?
condition met

Could you verify whether the entry CATTTACG shows PBM E-score of no less than 0.4?
condition not met

The values you see were collected from the supplement of paper PMC3334620.
